System: MCF-7 (breast carcinoma)
method-description: cells
Type: cell-based
measurement-parameters: Homo sapiens, MCF7, 72 h, read-out: GI50 MCF-7
I'd appreciate it if you could supply GI50 values for the items below.
Express it in nM; write the number only.

Identify GI50 associated with the compound C#CC(=O)N(c1ccccc1)C(C(=O)NC1CCCCC1)c1ccc(OC)c(OC)c1 (racemic)
1500

Return reported GI50. Input compound: O=C(NC1CCCCC1)C(c1ccccc1)N(C(=O)CC(F)(F)F)c1ccccc1 (racemic) [Compound 16g]
8000

Item C#CC(=O)N(c1ccccc1)C(C(=O)NCC(=O)OCC)c1ccccc1 (racemic) [Compound 18a] : provide GI50
2700

* * *

Tested on: Du145 (prostate carcinoma)
method-description: cells
Type: cell-based
measurement-parameters: Homo sapiens, DU-145, 72 h, read-out: GI50 Du145
Please respond with reported GI50 for every item in the list.
Give the quantity in nM, number only.

Give the reported value of GI50 for this record: C#CC(=O)N(c1ccccc1)C(C(=O)NC1CCCCC1)c1ccccc1 (racemic) [Compound 12]
180

Input C#CC(=O)N(c1ccccc1)C(C(=O)NCc1ccccc1)c1ccccc1 (racemic) [Compound 17a] , output reported GI50.
1000

Fill in GI50 for record C#CC(=O)N(c1ccccc1)C(C(=O)NC1CCCCC1)c1ccc(OC)c(OC)c1 (racemic) [Compound 21]
610

Write down GI50 measured for item O=C(NC1CCCCC1)C(c1ccccc1)N(C(=O)CC(F)(F)F)c1ccccc1 (racemic) [Compound 16g]
4800

Using the record for C#CC(=O)N(c1ccc(OC)cc1)C(C(=O)NC1CCCCC1)c1ccccc1 (racemic) [Compound 19] , state its measured GI50.
200

Specify measured GI50 for C#CC(=O)N(c1ccccc1)C(C(=O)NCC(=O)OCC)c1ccccc1 (racemic) [Compound 18a] .
320

Indicate the recorded GI50 value for this molecule: C#CC(=O)N(c1ccccc1)C(C(=O)NC1CCCCC1)c1cccc(OC)c1OC (racemic) [Compound 20]
660

* * *

Please respond with reported log10(GI50) for every item in the list.
Tested on: SJ-G2 (glioblastoma)
method-description: cells
Assay type: cell-based
measurement-parameters: SJ-G2, 72 h, read-out: GI50 SJ-G2
Form field - Quantity: GI50; Unit: nM; Scale: log10

Return reported log10(GI50). Input compound: CC(=O)N(c1ccccc1)C(C(=O)NCc1ccccc1)c1ccccc1 (racemic) [Compound 17e]
4.18

Return the recorded log10(GI50) value; entry: O=C(NC1CCCCC1)C(c1ccccc1)N(C(=O)CC(F)(F)F)c1ccccc1 (racemic) [Compound 16g]
4.04

Return the recorded log10(GI50) value; entry: C#CC(=O)N(c1ccccc1)C(C(=O)NCC(=O)OCC)c1ccccc1 (racemic) [Compound 18a]
3.48

Kindly indicate its recorded log10(GI50). Item: C#CC(=O)N(c1ccccc1)C(C(=O)NC1CCCCC1)c1cccc(OC)c1OC (racemic) [Compound 20]
3.26

Write down log10(GI50) measured for item C#CC(=O)N(c1ccccc1)C(C(=O)NCc1ccccc1)c1ccccc1 (racemic) [Compound 17a]
3.40

Query log10(GI50) for C#CC(=O)N(c1ccccc1)C(C(=O)NC1CCCCC1)c1ccc(OC)c(OC)c1 (racemic) [Compound 21]
3.20

Return reported log10(GI50). Input compound: C#CC(=O)N(c1ccc(OC)cc1)C(C(=O)NC1CCCCC1)c1ccccc1 (racemic) [Compound 19]
2.88

Give the reported log10(GI50) for this compound. C#CC(=O)N(c1ccccc1)C(C(=O)NC1CCCCC1)c1ccccc1 (racemic) [Compound 12]
3.48
